system: Rhizoctonia solani; assay: Fungicidal activity against Rhizoctonia solani inoculated on compound pre-treated fifth-leaf stage rice seedlings through foliar spraying assessed as inhibition of rice sheath blight disease at 500 ppm measured 4 days post fungal inoculation
Consider the following molecules; for each one, report its inhibition at 500 ppm.
State the result as a value with its unit after it.

So what's the measured inhibition at 500 ppm for this one? CCc1nn(C)c(-c2nnc(C(F)(F)F)o2)c1Cl
70%

Bench note: what inhibition at 500 ppm did CCOC(=O)C(C)Sc1nnc(-c2cc(CC)nn2C)o1 (stereo not drawn) show?
25%

May I ask what inhibition at 500 ppm has been recorded for CCc1nn(C)c(-c2nn(C)c(=O)o2)c1Cl ?
25%

GET /values?readout=inhibition at 500 ppm&item= CCCSc1nnc(-c2c(Cl)c(CC)nn2C)o1
90%

Look at this molecule and give its reported inhibition at 500 ppm. CCc1nn(C)c(-c2nnc(CCl)o2)c1Cl
90%

So what does the record say about inhibition at 500 ppm for CCCCc1nnc(-c2c(Cl)c(CC)nn2C)o1 ?
70%

Give the measured inhibition at 500 ppm of C=CCSc1nnc(-c2c(Cl)c(CC)nn2C)s1 .
50%

I am curious: what inhibition at 500 ppm value has been reported for CCc1nn(C)c(-c2nnc(S)o2)c1Cl ?
25%

Which inhibition at 500 ppm is listed for CCSc1nnc(-c2cc(CC)nn2C)o1 ?
90%

Report inhibition at 500 ppm for CCc1nn(C)c(-c2nnc(SC)o2)c1Cl please.
90%

Quick one: inhibition at 500 ppm of CCCCCCCCSc1nnc(-c2c(Cl)c(CC)nn2C)o1 ?
50%

Request the reported inhibition at 500 ppm associated with CCSc1nnc(-c2c(Cl)c(CC)nn2C)s1
90%

inhibition at 500 ppm lookup needed for CCCCCSc1nnc(-c2c(Cl)c(CC)nn2C)o1 , thanks.
70%

Reference for the values: ChEMBL document CHEMBL3044885
